# Test system: NFκB signaling pathway
# experiment-summary: NFκB luciferase reporter system in HEK 293T cells transfected with pCMV plasmids (Carma-1-dependent activation)
# Type: cell-based, human
# test-context: HEK 293T NFκB reporter; proteins cloned in 3× Flag (C-term) pCMV vector; table I
observation-type: NFκB signaling pathway inhibition (%)
Please respond with the number in % and leave the unit unwritten.

Quick one: NFκB signaling pathway inhibition (%) of CNCM4573: ortholog of ZP05614546.1 from strain CNCM-4573 (protein, listed as Faecalibacterium prausnitzii) MMMPANFSAVSENEMTYVMGGSIADYLAPAMGAAQWQNFHKNLVTIVGNKYVQGFLDNTVGAVFSGTWTPGVGLTGFGGQFSTIWKKNYTDNVTDESTGAQKFGYGALGVVNSILNVAGNLAAIYNLGFGTAKNIVGEGVYKA ? 89

Quick one: NFκB signaling pathway inhibition (%) of L2-62: ortholog of ZP05614546.1 from strain L2-62 (protein, listed as Faecalibacterium prausnitzii) MMMPANFSAVNAEVVYGGAVADYLPSAWTAESVKRFNSNIITLVSNSFTSHLLKATLGTMFSGSWGSDGVTLFGDNGTFSGLYNVNRLPGGEAQTFGNKIMTTLGLASVVYTLGMKDAAVLTAKKVTNSNGQVWGDLPNNGGSGWVG ? 34

Quick one: NFκB signaling pathway inhibition (%) of M21/2: ortholog of ZP05614546.1 from strain M21/2 (protein, listed as Faecalibacterium prausnitzii) MMMPANFSAVSENEMTYVMGGSVADYLAPAMGAAQWQNFHKNLITIVGNKYVQGFLDNTVGAMFSGTWTPGDGLTGFGGQFSTIWKKNYTDNVTDESTGAQKFGYGALGVVNSILNVAGNLAAIYNLGFGTAKNIVGEGVYKA ? 90

Recorded values, source patent US11013783B2.
